- TARGET_DESC: Proto-oncogene tyrosine-protein kinase Src (Homo sapiens, UniProt P12931)
- Sequence (P12931 2-536 limits assumed): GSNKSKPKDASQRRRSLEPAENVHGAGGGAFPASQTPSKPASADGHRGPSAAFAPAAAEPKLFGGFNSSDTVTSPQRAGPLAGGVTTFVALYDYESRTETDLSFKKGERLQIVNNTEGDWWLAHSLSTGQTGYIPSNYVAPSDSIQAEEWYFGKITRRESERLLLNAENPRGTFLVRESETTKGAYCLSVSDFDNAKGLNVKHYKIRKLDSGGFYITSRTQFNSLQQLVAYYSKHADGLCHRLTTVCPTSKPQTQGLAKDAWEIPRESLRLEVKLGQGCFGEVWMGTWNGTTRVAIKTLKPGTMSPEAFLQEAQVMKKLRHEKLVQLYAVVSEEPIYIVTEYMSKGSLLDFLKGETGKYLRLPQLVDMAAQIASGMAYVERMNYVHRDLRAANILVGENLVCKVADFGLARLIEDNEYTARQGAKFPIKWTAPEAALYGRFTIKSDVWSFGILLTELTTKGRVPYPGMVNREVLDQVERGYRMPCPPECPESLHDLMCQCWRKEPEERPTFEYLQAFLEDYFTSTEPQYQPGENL
- EXPERIMENTAL_PROTOCOL: Inhibition of Src Kinase at 0.1 mM ATP
VALUE_TYPE: pIC50
Schema: pIC50 number; meaning minus log10 of the concentration expressed in molar units.

Entry "COc1cc2ncc(C#N)c(Nc3ccc(Cl)cc3Cl)c2cc1OC" , pIC50 reported as 7.64

* * *

- TARGET_DESC: Proto-oncogene tyrosine-protein kinase Src (Homo sapiens)
- EXPERIMENTAL_PROTOCOL: Inhibitory activity against human c-Src Kinase was measured using ELISA assay
VALUE_TYPE: pIC50
For clarity, pIC50 is expressed as the negative log10 of concentration in mol/L.

CHEMICAL_STRING | RECORDED_RESULT
COc1cc2c(Nc3ccc(Cl)cc3Cl)c(C#N)cnc2cc1OCCCN1CCN(C)CC1 | 8.06
COc1cc2ncc(C#N)c(Nc3cc(Cl)ccc3Cl)c2cc1OC | 7.40
COc1ccc2ncc(C#N)c(Nc3ccc(Cl)cc3Cl)c2c1 | 6.49
COc1cc2nccc(Nc3ccc(Cl)cc3Cl)c2cc1OC | 7.08
CCCCOc1cc2ncc(C#N)c(Nc3ccc(Cl)cc3Cl)c2cc1OCCCC | 6.80

Observed pIC50 on Proto-oncogene tyrosine-protein kinase Src (Homo sapiens), entry "COc1cc2ncc(C#N)c(Nc3ccc(Cl)cc3)c2cc1OC" , equals 7.28

Bench note, Proto-oncogene tyrosine-protein kinase Src (Homo sapiens): "COc1cc2ncc(C#N)c(Nc3ccc(Cl)cc3Br)c2cc1OC" , pIC50 reads 8.00

Tested on Proto-oncogene tyrosine-protein kinase Src (Homo sapiens): "CCOc1cc2ncc(C#N)c(Nc3ccc(Cl)cc3Cl)c2cc1OCC" . Observed pIC50: 7.96

Test item "COc1cc2ncc(C#N)c(Nc3c(Cl)cccc3Cl)c2cc1OC" ; Proto-oncogene tyrosine-protein kinase Src (Homo sapiens); reported pIC50 was 7.21

"COc1cc2ncc(C#N)c(Nc3ccc(Br)cc3Cl)c2cc1OC" tested on Proto-oncogene tyrosine-protein kinase Src (Homo sapiens) gave pIC50: 7.82

Considering "COc1cc2ncc(C=O)c(Nc3ccc(Cl)cc3Cl)c2cc1OC" , its pIC50 with Proto-oncogene tyrosine-protein kinase Src (Homo sapiens) was recorded as 6.60

The observed pIC50 for "COc1ccc2c(Nc3ccc(Cl)cc3Cl)c(C#N)cnc2c1" when tested with Proto-oncogene tyrosine-protein kinase Src (Homo sapiens) stands at 6.70

pIC50 for Proto-oncogene tyrosine-protein kinase Src (Homo sapiens) with input "COc1cc2ncc(C#N)c(Nc3ccc(I)cc3Cl)c2cc1OC" equals 7.02

Bench note, Proto-oncogene tyrosine-protein kinase Src (Homo sapiens): entry "COc1cc2ncc(C#N)c(Nc3ccc(Cl)cc3Cl)c2cc1OC" , its pIC50 = 7.52

Proto-oncogene tyrosine-protein kinase Src (Homo sapiens) data for "COc1cc2c(Nc3ccc(Cl)cc3Cl)c(C#N)cnc2cc1OCCCN1CCOCC1" ; its pIC50: 8.42

The reported pIC50 value, Proto-oncogene tyrosine-protein kinase Src (Homo sapiens), for "COc1cccc2ncc(C#N)c(Nc3ccc(Cl)cc3Cl)c12" reads 5.92

Known value: Proto-oncogene tyrosine-protein kinase Src (Homo sapiens) pIC50 of the compound "COc1cc2ncnc(Nc3ccc(Cl)cc3Cl)c2cc1OC" equals 6.60

Value (pIC50, Proto-oncogene tyrosine-protein kinase Src (Homo sapiens)) for record "COc1cc2ncc(C#N)c(Nc3ccc(Cl)cc3I)c2cc1OC" = 8.21

Case "COc1cc2ncc(C#N)c(Nc3cc(Cl)cc(Cl)c3)c2cc1OC" , Proto-oncogene tyrosine-protein kinase Src (Homo sapiens), pIC50 recorded as 5.96

Per the reported Proto-oncogene tyrosine-protein kinase Src (Homo sapiens) data, "COc1cc2ncc(C#N)c(Sc3ccc(Cl)cc3Cl)c2cc1OC" has pIC50 of 5.66

Query "COc1cc2ncc(C#N)c(Nc3ccc(Cl)cc3F)c2cc1OC" on Proto-oncogene tyrosine-protein kinase Src (Homo sapiens); pIC50 returned: 7.28

The value of pIC50 recorded for "COc1cc2ncc(C#N)c(Nc3ccccc3Cl)c2cc1OC" when tested on Proto-oncogene tyrosine-protein kinase Src (Homo sapiens) reads 7.02

Proto-oncogene tyrosine-protein kinase Src (Homo sapiens) assay, compound "COc1cc2c(Nc3ccc(Cl)cc3Cl)c(C#N)cnc2cc1OCCCN1CCC(O)CC1" , recorded pIC50 = 8.46

Known value: Proto-oncogene tyrosine-protein kinase Src (Homo sapiens) pIC50 of the compound "COc1cc2ncc(C#N)c(Nc3ccc(Cl)c(Cl)c3)c2cc1OC" equals 7.24

The reported Proto-oncogene tyrosine-protein kinase Src (Homo sapiens) pIC50 of "COc1cc2ncc(C#N)c(Nc3ccc(Cl)cc3Cl)c2cc1OCCCN1CCOCC1" is 6.66

Tested on Proto-oncogene tyrosine-protein kinase Src (Homo sapiens), the item "COc1cc2ncc(C#N)c(Nc3cccc(Cl)c3Cl)c2cc1OC" showed pIC50 equal to 7.05

Query "N#Cc1cnc2cc(OCCCN3CCOCC3)c(OCCCN3CCOCC3)cc2c1Nc1ccc(Cl)cc1Cl" on Proto-oncogene tyrosine-protein kinase Src (Homo sapiens); pIC50 returned: 7.72

All values here come from ChEMBL document CHEMBL1134365.
